# hERG current change (%, negative = inhibition) at 1uM per record follows
target: human ether-à-go-go-related gene (hERG) potassium channel (human); assay: primary screen, population patch clamp on CHO cells stably expressing hERG; higher = less effect of the substance
Sequence (Q12809 whole entry, looked up): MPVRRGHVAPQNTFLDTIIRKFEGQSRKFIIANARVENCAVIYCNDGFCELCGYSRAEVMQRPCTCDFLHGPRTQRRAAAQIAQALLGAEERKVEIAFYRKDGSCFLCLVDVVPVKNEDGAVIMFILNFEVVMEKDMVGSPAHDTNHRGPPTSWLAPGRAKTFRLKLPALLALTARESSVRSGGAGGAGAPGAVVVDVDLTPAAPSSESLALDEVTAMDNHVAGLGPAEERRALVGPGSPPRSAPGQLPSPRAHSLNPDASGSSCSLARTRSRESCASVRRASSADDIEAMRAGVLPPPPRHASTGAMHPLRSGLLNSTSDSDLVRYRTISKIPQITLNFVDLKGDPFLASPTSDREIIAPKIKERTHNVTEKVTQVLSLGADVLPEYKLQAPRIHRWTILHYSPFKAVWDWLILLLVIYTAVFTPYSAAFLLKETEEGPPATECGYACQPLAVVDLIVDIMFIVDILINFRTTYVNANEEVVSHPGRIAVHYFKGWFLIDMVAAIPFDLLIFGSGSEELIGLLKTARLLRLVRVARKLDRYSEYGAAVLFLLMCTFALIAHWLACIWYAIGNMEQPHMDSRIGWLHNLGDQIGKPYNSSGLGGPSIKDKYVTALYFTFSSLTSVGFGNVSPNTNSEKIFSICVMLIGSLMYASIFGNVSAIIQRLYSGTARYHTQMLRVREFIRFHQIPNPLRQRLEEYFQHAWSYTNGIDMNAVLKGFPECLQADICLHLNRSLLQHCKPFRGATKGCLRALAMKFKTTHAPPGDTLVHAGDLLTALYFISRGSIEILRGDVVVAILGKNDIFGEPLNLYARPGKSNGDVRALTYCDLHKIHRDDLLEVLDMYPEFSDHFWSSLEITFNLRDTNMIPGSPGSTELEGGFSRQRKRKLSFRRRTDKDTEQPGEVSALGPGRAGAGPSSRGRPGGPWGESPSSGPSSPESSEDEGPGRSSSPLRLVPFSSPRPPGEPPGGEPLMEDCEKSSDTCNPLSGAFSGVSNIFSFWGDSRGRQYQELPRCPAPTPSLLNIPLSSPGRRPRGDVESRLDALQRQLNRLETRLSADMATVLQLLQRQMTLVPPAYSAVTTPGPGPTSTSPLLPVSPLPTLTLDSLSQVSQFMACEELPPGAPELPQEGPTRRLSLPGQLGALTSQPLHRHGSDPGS
In all, about 310,000 compounds went through this assay and about 2,200 (0.71%) showed an effect of 50% or more. Effects have a minus sign here. For the sample, strong results were picked, then their nearest neighbours and some compounds at random.
property_name: hERG current change (%, negative = inhibition) at 1uM (%)

In [3]: df
Out[3]:
                                    compound  scale_unit  assay_result
 0  N=c1c2c(-c3ccccc3)c(-c3ccccc3)n(Cc3ccccc3)c2ncn1CCCn1ccnc1           %           -32
 1  CC(C)Cn1cnc2c(c(-c3ccccc3)c(-c3ccccc3)n2Cc2ccco2)c1=N           %         -26.2
 2  COc1ccc(NC(=O)CN2CCN(CC(=O)Nc3ccc4c(c3)OCO4)CC2)cc1           %         -85.9
 3  CC1(C)CC(=O)CC2(C1)NCC(c1ccccc1)c1c2[nH]c2ccccc12.Cl (centres unmarked)           %         -83.4
 4  COc1ccccc1/C=C/CN1CCC(Oc2ccc(C(=O)N3CCCCC3)cc2)CC1           %          7.23
 5  COc1ccc(S(=O)(=O)N2CCCN(CC(=O)Nc3ccc4c(c3)OCO4)CC2)cc1           %         -15.1
 6  CCOc1ccc(NC(=O)CN2CCN(CC(=O)Nc3ccc4c(c3)OCO4)CC2)cc1           %         -80.9
 7  Br.CCOC(=O)c1c(CSC(=N)N)n(-c2ccc(C)cc2)c2cc(Br)c(OC(C)=O)cc12           %         -36.7
 8  Cc1sc2nc(CN3CCCC3)nc(N3CCN(S(=O)(=O)c4ccccc4)CC3)c2c1C           %         -19.4
 9  COc1ccccc1NC(=O)CN1CCN(CC(=O)Nc2ccc3c(c2)OCO3)CC1           %         -67.3
10  O=C(CCS(=O)(=O)c1ccc2c(c1)NC(=O)CS2)NCCc1ccc(Cl)cc1           %            10
11      CCOc1ccc(NC(=O)COc2ccc3c(c2)OCO3)cc1           %          7.57
12       COc1ccc(OCC(=O)Nc2ccc3c(c2)OCO3)cc1           %          11.7
13  N=c1c2c(-c3ccccc3)c(-c3ccccc3)n(Cc3ccco3)c2ncn1CCCn1ccnc1           %         -63.6
14  N=c1c2c(-c3ccccc3)c(-c3ccccc3)n(Cc3ccco3)c2ncn1Cc1ccccc1           %         -4.13
15  COc1ccc(N2C(=O)C(Cl)=C(Nc3ccccc3OC)C2=O)cc1           %          2.56
16  COc1cc(C(=O)N2CCN(C/C=C/c3ccccc3)CC2)cc(OC)c1OC           %          -2.2
17  Br.CCOC(=O)c1c(CSC(=N)N)n(C)c2cc(Br)c(OC(C)=O)cc12           %         -36.7
18  CN(C)CCN1C(=O)c2oc3ccccc3c(=O)c2C1c1ccc(F)cc1 (centres unmarked)           %         -2.93
19  c1ccc(-c2c(-c3ccccc3)n(Cc3ccco3)c3ncnc(NCCCn4ccnc4)c23)cc1           %         -9.73
20  CCCCn1cnc2c(c(-c3ccccc3)c(-c3ccccc3)n2Cc2ccco2)c1=N           %         -45.6
21  COc1cccc(C2CNC3(CCCC(C)C3)c3[nH]c4ccccc4c32)c1OC.Cl (centres unmarked)           %          8.05
22     CCOc1ccc(OCCC(=O)Nc2ccc3c(c2)OCO3)cc1           %          11.1
